Test: Dissociation constant, pKa of the compound by potentiometric titration method
Type: physicochemical
compounds and their reported pKa
Keep it simple and answer with nothing but the number.

Use these answered entries as a reference point.
{"columns": ["chemicalSmiles", "attributeMeasured", "numericValue"],
 "data": [
  ["c1ccc2cc(-c3nc(-c4ccc5nc[nH]c5c4)no3)ccc2c1", "pKa", 4.22],
  ["c1ccc(-c2nc(-c3ccc4nc[nH]c4c3)no2)cc1", "pKa", 3.69],
  ["Fc1ccc(-c2nc(-c3ccc4nc[nH]c4c3)no2)cc1", "pKa", 3.57],
  ["Clc1ccc(-c2nc(-c3ccc4nc[nH]c4c3)no2)cc1", "pKa", 3.77],
  ["Brc1ccc(-c2nc(-c3ccc4nc[nH]c4c3)no2)cc1", "pKa", 3.25]
]}

Now look at this one.
Measured pKa of `FC(F)(F)c1ccccc1-c1nc(-c2ccc3nc[nH]c3c2)no1` : 4
